Some compounds, each annotated with its measured inhibition at 0.37 µM.
Molecular target: purified human HDAC6 (Homo sapiens, UniProt Q9UBN7)
Construct: purchased BPS Bioscience 5006
Experiment: HDAC6 Enzyme Assay
Format: biochemical
Details: compound concentration 0.37 μM, read-out: Percent Inhibition
Quick reminder: number only, in %, skip the unit.

Look over these answered cases.
| COMPOUND | MEASURED_ENDPOINT | VALUE |
| --- | --- | --- |
| O=C(NO)c1ccc2ncn(Cc3cccc(-c4cc5ccccc5s4)c3)c(=O)c2c1 [Compound I-268] | inhibition at 0.37 µM | 93.2 |
| O=C(NO)c1ccc2ncn(Cc3cccc(-c4ccccc4Cl)c3)c(=O)c2c1 [Compound I-28] | inhibition at 0.37 µM | 85.5 |
| Nc1cccc(-c2cccc(Cn3cnc4ccc(C(=O)NO)cc4c3=O)c2)c1 [Compound I-177] | inhibition at 0.37 µM | 93.2 |

Query :: Look up inhibition at 0.37 µM for this compound: CS(=O)(=O)c1cccc(-c2cccc(CCn3cnc4ccc(C(=O)NO)cc4c3=O)c2)c1 [Compound I-341]
Result :: 94.5

Query :: Look up inhibition at 0.37 µM for this compound: O=C(NO)c1ccc2ccn(-c3ccc(Cl)cc3)c(=O)c2c1 [Compound I-247]
Result :: 93

Query :: Look up inhibition at 0.37 µM for this compound: O=C(NO)c1ccc2ncn(CCc3cccc(-c4cccnc4)c3)c(=O)c2c1 [Compound I-331]
Result :: 87.2

Query :: Look up inhibition at 0.37 µM for this compound: O=C(O)c1ccc(-c2cccc(CCn3cnc4ccc(C(=O)NO)cc4c3=O)c2)cc1 [Compound I-321]
Result :: 87.3

====

Biological target: purified human HDAC6 (Homo sapiens, UniProt Q9UBN7)
Construct: purchased BPS Bioscience 5006
Assay: HDAC6 Enzyme Assay
Assay type: biochemical
Conditions: compound concentration 0.412 μM, read-out: Percent Inhibition
MEASURED_ENDPOINT: inhibition at 0.412 µM (%)
Quick reminder: number only, in %, skip the unit.

Look over these answered cases.
| MOLECULE | inhibition at 0.412 µM / % |
| --- | --- |
| CCOCCn1cnc2ccc(C(=O)NO)cc2c1=O [Compound I-226] | 84.5 |
| O=C(NO)c1ccc2ccn(CCc3ccc(Cl)cc3)c(=O)c2c1 [Compound I-236] | 96.2 |
| O=C(NO)c1ccc2ccn(Cc3ccccn3)c(=O)c2c1 [Compound I-279] | 87.9 |
| COc1ccc2ccc(OCCCn3ccc4ccc(C(=O)NO)cc4c3=O)cc2c1 [Compound I-231] | 94.8 |
| O=C(NO)c1ccc2ccn(Cc3ccccc3F)c(=O)c2c1 [Compound I-122] | 94.6 |
| O=C(NO)c1ccc2ccn(Cc3ccccc3CS(=O)(=O)c3ccccc3)c(=O)c2c1 [Compound I-178] | 95 |
| O=C(NO)c1ccc2ccn(CC3CC3)c(=O)c2c1 [Compound I-261] | 87.5 |
| O=C(NO)c1ccc2ccn(C3c4ccccc4-c4ccccc43)c(=O)c2c1 [Compound I-201] | 88.8 |

Moving on to another molecule below.
Query :: Provide the documented inhibition at 0.412 µM with purified human HDAC6 (Homo sapiens, UniProt Q9UBN7) as the system for COc1ccccc1OCc1nc2cc(C(=O)NO)ccc2c(=O)[nH]1 [Compound I-248]
Result :: 90

====

Biological target: purified human HDAC6 (Homo sapiens)
Construct: purchased BPS Bioscience 5006
Assay: HDAC6 Enzyme Assay
Format: biochemical
Details: compound concentration 0.412 μM, read-out: Percent Inhibition
MEASURED_ENDPOINT: inhibition at 0.412 µM (%)
Quick reminder: number only, in %, skip the unit.

Look over these answered cases.
| COMPOUND | ASSAY_SYSTEM | inhibition at 0.412 µM, % |
| --- | --- | --- |
| O=C(NO)c1ccc2ncn(Cc3cccc(C(F)(F)F)c3)c(=O)c2c1 | purified human HDAC6 (Homo sapiens) | 95.5 |
| NC(=O)CCn1ccc2ccc(C(=O)NO)cc2c1=O | purified human HDAC6 (Homo sapiens) | 77 |
| CC(C)(C)c1ccc(Cn2ccc3ccc(C(=O)NO)cc3c2=O)cc1 | purified human HDAC6 (Homo sapiens) | 94.8 |
| O=C(NO)c1ccc2ccn(CCCCOc3ccccc3)c(=O)c2c1 | purified human HDAC6 (Homo sapiens) | 98 |
| O=C(NO)c1ccc2ccn(Cc3ccc(OC(F)(F)F)cc3)c(=O)c2c1 | purified human HDAC6 (Homo sapiens) | 92.9 |

Query :: Provide the documented inhibition at 0.412 µM with purified human HDAC6 (Homo sapiens) as the system for `O=C(NO)c1ccc2ccn(CCCOc3ccccc3Cl)c(=O)c2c1`
Result :: 93.7

Query :: Provide the documented inhibition at 0.412 µM with purified human HDAC6 (Homo sapiens) as the system for `O=C(NO)c1ccc2ccn(Cc3ccc4ccccc4c3)c(=O)c2c1`
Result :: 96.5

Query :: Provide the documented inhibition at 0.412 µM with purified human HDAC6 (Homo sapiens) as the system for `O=C(NO)c1ccc2ccn(Cc3cccc(Oc4ccc(F)cc4)c3)c(=O)c2c1`
Result :: 91

Query :: Provide the documented inhibition at 0.412 µM with purified human HDAC6 (Homo sapiens) as the system for `Cc1ccc(Cn2ccc3ccc(C(=O)NO)cc3c2=O)cc1F`
Result :: 94.5

Query :: Provide the documented inhibition at 0.412 µM with purified human HDAC6 (Homo sapiens) as the system for O=C(NO)c1ccc2ccn(CC(c3ccccc3)C3CCCCC3)c(=O)c2c1 (stereo not drawn)
Result :: 80.9

Query :: Provide the documented inhibition at 0.412 µM with purified human HDAC6 (Homo sapiens) as the system for `O=C(NO)c1ccc2ccn(Cc3c(Cl)cccc3Cl)c(=O)c2c1`
Result :: 94.9

Query :: Provide the documented inhibition at 0.412 µM with purified human HDAC6 (Homo sapiens) as the system for `Cc1onc(-c2ccccc2)c1Cn1ccc2ccc(C(=O)NO)cc2c1=O`
Result :: 96.1

Query :: Provide the documented inhibition at 0.412 µM with purified human HDAC6 (Homo sapiens) as the system for `CCOCCn1cnc2cc(C(=O)NO)ccc2c1=O`
Result :: 88.1

Query :: Provide the documented inhibition at 0.412 µM with purified human HDAC6 (Homo sapiens) as the system for `O=C(NO)c1ccc2c(=O)[nH]c(COc3ccccc3Cl)nc2c1`
Result :: 81.2

Query :: Provide the documented inhibition at 0.412 µM with purified human HDAC6 (Homo sapiens) as the system for `O=C(NO)c1ccc2c(=O)[nH]c(CNCc3ccc(Cl)cc3)nc2c1`
Result :: 90.9

Query :: Provide the documented inhibition at 0.412 µM with purified human HDAC6 (Homo sapiens) as the system for `O=C(NO)c1ccc2c(=O)[nH]c(-c3cccc(C(F)(F)F)c3)nc2c1`
Result :: 73.2

Query :: Provide the documented inhibition at 0.412 µM with purified human HDAC6 (Homo sapiens) as the system for `O=C(NO)c1ccc2ccn(CCOc3ccc(-n4ccnc4)cc3)c(=O)c2c1`
Result :: 96.9

Query :: Provide the documented inhibition at 0.412 µM with purified human HDAC6 (Homo sapiens) as the system for `O=C(NO)c1ccc2ncn(CCOc3ccccc3)c(=O)c2c1`
Result :: 97

====

Molecular target: purified human HDAC6 (Homo sapiens)
Construct: purchased BPS Bioscience 5006
Sequence (Q9UBN7 1-1215): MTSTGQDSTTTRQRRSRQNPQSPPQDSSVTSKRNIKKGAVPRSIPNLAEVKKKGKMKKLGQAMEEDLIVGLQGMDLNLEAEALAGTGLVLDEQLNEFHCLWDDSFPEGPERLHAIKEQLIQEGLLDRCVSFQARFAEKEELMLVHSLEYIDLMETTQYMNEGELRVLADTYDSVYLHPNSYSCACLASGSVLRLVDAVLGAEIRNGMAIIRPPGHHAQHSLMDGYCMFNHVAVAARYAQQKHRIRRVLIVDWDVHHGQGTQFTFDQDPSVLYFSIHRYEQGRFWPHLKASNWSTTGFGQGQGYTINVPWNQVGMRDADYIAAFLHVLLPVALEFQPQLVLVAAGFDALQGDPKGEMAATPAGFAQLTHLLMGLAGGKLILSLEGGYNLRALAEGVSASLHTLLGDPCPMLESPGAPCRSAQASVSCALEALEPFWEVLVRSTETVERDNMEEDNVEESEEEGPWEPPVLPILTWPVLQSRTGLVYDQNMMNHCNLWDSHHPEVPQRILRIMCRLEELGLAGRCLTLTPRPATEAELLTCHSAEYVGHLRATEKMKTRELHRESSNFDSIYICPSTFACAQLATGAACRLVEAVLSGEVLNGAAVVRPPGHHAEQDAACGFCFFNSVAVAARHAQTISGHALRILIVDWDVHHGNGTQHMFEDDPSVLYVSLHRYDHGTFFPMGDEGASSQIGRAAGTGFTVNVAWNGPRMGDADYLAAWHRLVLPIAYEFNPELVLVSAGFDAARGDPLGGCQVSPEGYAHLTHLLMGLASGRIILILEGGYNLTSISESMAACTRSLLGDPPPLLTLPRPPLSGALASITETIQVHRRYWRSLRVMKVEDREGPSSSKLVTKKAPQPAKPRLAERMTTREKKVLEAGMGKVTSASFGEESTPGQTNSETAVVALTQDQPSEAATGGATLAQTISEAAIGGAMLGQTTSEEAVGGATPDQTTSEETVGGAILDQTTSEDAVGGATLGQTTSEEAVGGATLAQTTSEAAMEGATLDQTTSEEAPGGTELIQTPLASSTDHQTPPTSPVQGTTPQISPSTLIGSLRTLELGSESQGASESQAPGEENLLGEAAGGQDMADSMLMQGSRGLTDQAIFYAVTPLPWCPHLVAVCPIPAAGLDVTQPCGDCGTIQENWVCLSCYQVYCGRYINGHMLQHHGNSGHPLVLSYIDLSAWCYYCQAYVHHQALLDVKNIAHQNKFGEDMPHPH
Assay: HDAC6 Enzyme Assay
Format: biochemical
Settings: compound concentration 0.412 μM, read-out: Percent Inhibition
MEASURED_ENDPOINT: inhibition at 0.412 µM (%)
Quick reminder: number only, in %, skip the unit.

Query :: Look up inhibition at 0.412 µM for this molecule: `O=C(NO)c1ccc2ccn(CCCOc3cccc(OCc4ccccc4)c3)c(=O)c2c1`
Result :: 83

Query :: Look up inhibition at 0.412 µM for this molecule: `O=C(NO)c1ccc2ccn(Cc3cc(C(F)(F)F)ccc3C(F)(F)F)c(=O)c2c1`
Result :: 99.4

Query :: Look up inhibition at 0.412 µM for this molecule: `CC1(C)CCC(C)(C)c2cc(Cn3cnc4ccc(C(=O)NO)cc4c3=O)ccc21`
Result :: 95.2

Query :: Look up inhibition at 0.412 µM for this molecule: `CN(C)c1nc2cc(C(=O)NO)ccc2c(=O)n1-c1ccccc1`
Result :: 61.5
